Overview of recorded pIC50 for various compounds
system: rhHDAC 9 (Homo sapiens, UniProt Q9UKV0)
Sequence (Q9UKV0 whole entry, canonical isoform): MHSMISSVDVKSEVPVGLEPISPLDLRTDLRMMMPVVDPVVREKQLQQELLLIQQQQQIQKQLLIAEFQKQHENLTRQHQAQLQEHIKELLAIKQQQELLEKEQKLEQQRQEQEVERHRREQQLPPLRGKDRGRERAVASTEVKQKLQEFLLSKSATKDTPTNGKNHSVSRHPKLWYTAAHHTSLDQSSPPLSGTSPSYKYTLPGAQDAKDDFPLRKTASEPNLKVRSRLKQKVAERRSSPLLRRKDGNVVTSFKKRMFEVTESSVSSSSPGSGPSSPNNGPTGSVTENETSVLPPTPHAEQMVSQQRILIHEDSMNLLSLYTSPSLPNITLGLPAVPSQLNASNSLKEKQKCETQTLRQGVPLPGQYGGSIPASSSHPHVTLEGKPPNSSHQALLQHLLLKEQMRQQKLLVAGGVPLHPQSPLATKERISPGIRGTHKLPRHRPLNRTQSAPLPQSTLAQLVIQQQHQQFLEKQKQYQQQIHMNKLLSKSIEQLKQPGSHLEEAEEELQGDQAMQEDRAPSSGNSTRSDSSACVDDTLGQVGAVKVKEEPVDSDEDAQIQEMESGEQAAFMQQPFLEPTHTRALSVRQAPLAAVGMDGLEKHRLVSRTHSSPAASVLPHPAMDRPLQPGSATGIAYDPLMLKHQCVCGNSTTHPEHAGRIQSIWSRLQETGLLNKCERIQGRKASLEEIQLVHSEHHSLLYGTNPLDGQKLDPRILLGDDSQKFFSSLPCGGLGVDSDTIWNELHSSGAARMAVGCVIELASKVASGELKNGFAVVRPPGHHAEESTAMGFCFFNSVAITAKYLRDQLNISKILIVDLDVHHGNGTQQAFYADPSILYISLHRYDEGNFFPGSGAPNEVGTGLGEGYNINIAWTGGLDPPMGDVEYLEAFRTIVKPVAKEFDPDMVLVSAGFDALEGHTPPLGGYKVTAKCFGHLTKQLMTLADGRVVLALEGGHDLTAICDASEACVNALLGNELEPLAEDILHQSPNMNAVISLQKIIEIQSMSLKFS
testDetails: Inhibition of recombinant human HDAC isoforms
details: mean ± SD, triplicate per plate, min two plates; read-out: ED50 rhHDAC 9
Scale: pIC50 equals -log10([C]), with [C] in mol/L.

Some entries whose results are on file:
O=C(/C=C/c1nc2ccccc2o1)NO | 6.56
COc1ccc(N2CCN(S(=O)(=O)c3cccc(/C=C/C(=O)NO)c3)CC2)cc1 | 5.93
O=C(/C=C/c1cccc(S(=O)(=O)Nc2cccc(F)c2)c1)NO | 6.96
O=C(/C=C/c1cccc(S(=O)(=O)N2CCN(c3ccccn3)CC2)c1)NO | 7.07
COc1ccc(NS(=O)(=O)c2cccc(/C=C/C(=O)NO)c2)cc1 | 7.59

Next compound, please.
# return pIC50 of COc1ccccc1N1CCN(S(=O)(=O)c2cccc(/C=C/C(=O)NO)c2)CC1 (system: rhHDAC 9 (Homo sapiens, UniProt Q9UKV0)) 6.84
